The entries below come with measured IC50 values attached.
- TARGET_OR_TEST_SYSTEM: human liver glycogen phosphorylase a (HLGPa) (Homo sapiens, UniProt P06737)
- Construct: creating a full-length cDNA fused at the 5′ end to codons for methionine-glycine-alanine-histidine; 6xHis tag (leader Met-Gly-Ala-His6-Gly-Gly) (N); made in house; host or cells: E. coli (bacterial expression plasmid pTXK1007LTev)
- Sequence (P06737 2-847 limits assumed): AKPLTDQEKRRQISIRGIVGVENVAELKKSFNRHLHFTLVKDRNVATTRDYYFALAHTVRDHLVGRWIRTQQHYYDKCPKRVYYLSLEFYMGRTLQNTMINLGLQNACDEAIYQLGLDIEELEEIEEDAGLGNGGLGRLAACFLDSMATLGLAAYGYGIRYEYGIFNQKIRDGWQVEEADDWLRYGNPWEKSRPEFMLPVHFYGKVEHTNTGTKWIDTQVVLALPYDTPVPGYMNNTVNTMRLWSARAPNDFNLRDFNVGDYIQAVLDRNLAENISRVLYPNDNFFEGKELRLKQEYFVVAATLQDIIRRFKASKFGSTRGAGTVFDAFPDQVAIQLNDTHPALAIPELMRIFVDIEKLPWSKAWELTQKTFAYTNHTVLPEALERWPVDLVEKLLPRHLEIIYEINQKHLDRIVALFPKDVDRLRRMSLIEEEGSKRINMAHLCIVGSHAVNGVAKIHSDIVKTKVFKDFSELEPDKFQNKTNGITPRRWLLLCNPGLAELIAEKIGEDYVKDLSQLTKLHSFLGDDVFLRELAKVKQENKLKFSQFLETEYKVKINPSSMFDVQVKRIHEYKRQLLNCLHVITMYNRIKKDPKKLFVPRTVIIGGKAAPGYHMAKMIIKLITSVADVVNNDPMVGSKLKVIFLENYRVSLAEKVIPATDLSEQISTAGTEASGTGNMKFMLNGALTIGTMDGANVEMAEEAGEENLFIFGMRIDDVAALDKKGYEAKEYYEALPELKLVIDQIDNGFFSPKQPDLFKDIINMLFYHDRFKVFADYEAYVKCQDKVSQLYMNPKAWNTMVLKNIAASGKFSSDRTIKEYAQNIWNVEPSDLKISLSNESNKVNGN
- TEST_PROTOCOL: Human liver glycogen phosphorylase a enzymatic activity assay (coupled, fluorescent resorufin readout, with and without 10 mM glucose)
- Assay type: biochemical
- RUN_CONDITIONS: human liver glycogen phosphorylase a; table does not say whether with or without 10 mM glucose

{"COMPOUND": "Cc1cc(C)c(NC(=O)Nc2cc3ccccc3cc2C(=O)N[C@H](C(=O)O)[C@H]2CCCC(OC(=O)C(F)(F)F)C2)c(C)c1 (some centres unmarked)", "IC50": "11 nM"}
{"COMPOUND": "O=C(Nc1cc2ccccc2nc1C(=O)N[C@H](C(=O)O)C1CCCCC1)Nc1c(Cl)cc(Cl)cc1Cl", "IC50": "480 nM"}
{"COMPOUND": "COC(=O)[C@@H](NC(=O)c1cc(-c2ccccc2)sc1NC(=O)Nc1c(Cl)cc(Cl)cc1Cl)C1CCCCC1", "IC50": "1320 nM"}
{"COMPOUND": "Cc1cccc(C)c1NC(=O)Nc1cc2ccccc2cc1C(=O)N(CC(=O)O)Cc1ccccn1", "IC50": "3610 nM"}
{"COMPOUND": "O=C(O)C[C@H](NC(=O)c1cc2ccccc2cc1NC(=O)Nc1c(Cl)cc(OC(F)(F)F)cc1Cl)C(=O)O", "IC50": "14 nM"}
{"COMPOUND": "COc1ccc(-c2ccc(C(=O)N[C@H](c3nn[nH]n3)C3CCCCC3)c(NC(=O)Nc3c(C)cc(C)cc3C)c2)cc1", "IC50": "140 nM"}
{"COMPOUND": "COC(=O)C(NC(=O)c1cc2ccccc2cc1NC(=O)Nc1c(C)cc(C)cc1C)C1CCC(NC(=O)OC(C)(C)C)CC1 (mixture of isomers)", "IC50": "6890 nM"}
{"COMPOUND": "COc1ccc(-c2cnc(C(=O)N[C@H](C(=O)O)C3CCCCC3)c(NC(=O)Nc3c(C)cc(C)cc3C)c2)cc1", "IC50": "83 nM"}
